Biological target: full-length beta-Catenin (Uniprot ID P35222) (Homo sapiens (Human)) (UniProt P35222)
Sequence (P35222 whole entry): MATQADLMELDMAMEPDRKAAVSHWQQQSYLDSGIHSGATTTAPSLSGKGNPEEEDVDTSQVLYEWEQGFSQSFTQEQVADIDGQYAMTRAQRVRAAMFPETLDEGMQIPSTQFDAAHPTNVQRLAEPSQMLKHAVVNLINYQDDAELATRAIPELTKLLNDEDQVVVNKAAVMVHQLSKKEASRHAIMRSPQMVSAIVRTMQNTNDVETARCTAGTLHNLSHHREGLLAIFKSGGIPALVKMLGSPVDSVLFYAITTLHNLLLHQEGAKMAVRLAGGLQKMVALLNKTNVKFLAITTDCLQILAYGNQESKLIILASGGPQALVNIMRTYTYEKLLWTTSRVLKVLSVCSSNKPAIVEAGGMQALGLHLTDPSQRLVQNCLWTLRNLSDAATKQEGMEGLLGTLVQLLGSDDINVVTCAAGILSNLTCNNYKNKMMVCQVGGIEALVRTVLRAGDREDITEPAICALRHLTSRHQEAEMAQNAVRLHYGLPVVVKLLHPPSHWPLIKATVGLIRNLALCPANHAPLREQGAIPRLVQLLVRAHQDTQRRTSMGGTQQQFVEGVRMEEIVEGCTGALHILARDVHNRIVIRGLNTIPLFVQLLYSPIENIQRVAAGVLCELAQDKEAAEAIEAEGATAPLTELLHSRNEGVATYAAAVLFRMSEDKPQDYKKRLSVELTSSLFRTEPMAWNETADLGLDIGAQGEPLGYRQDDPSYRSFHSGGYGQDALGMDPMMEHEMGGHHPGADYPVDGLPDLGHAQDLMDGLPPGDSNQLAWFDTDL
Assay: fluorescence polarization competition vs 5FAM-TCF4(10-53) on full-length beta-catenin
pIC50: −log10 of the molar value. Starred links: 1 amine or outer side, 2 acyl side, 3 side chain; linkers in the order of their positions; H or OH if unused. Positions of bridges follow the written chain, without caps; N, C: chain ends. Non-standard residues stand in square brackets, D forms with d. Primed or numbered codes have the meaning given here. PyrS2″ = (S)-3-amino-1-((pent-4-en-1-yloxy)carbonyl)pyrrolidine-3-carboxylic acid (stapling residue), C=CCCCOC(=O)N1CC[C@@](N[*:1])(C(=O)[*:2])C1; B5(30) = 2-amino-2-(pent-4-en-1-yl)hept-6-enoic acid (2,2-bis(4-pentenyl)glycine, stitching residue), C=CCCCC(CCCC=C)(N[*:1])C(=O)[*:2]; B5(5) = 2,2-bis(4-pentenyl)glycine, 2-amino-2-(pent-4-en-1-yl)hept-6-enoic acid (stitching residue), C=CCCCC(CCCC=C)(N[*:1])C(=O)[*:2]; PyrS2 = (S)-3-amino-1-((pent-4-en-1-yloxy)carbonyl)pyrrolidine-3-carboxylic acid, C=CCCCOC(=O)N1CC[C@@](N[*:1])(C(=O)[*:2])C1; Bta = N[C@@H](Cc1csc2ccccc12)C(=O)O; αAllylPro = C=CC[C@@]1(C(=O)O)CCCN1; tBuAla = CC(C)(C)C[C@H](N)C(=O)O; 3Thi = N[C@@H](Cc1ccsc1)C(=O)O
Experimental readout: pIC50

I. Ac-[αAllylPro]D[tBuAla][B5(30)]NTAAFN[PyrS2][3Thi][Bta]L-NH2 (staple 1-4, 4-11; also: earlier-eluting HPLC isomer) [I-1880]
II. Ac-[αAllylPro]D[tBuAla][B5(5)]NTAAFN[PyrS2″][3Thi][Bta]V-NH2 (staple 1-4, 4-11; also: separately listed staple isomer composition) [I-1878]
Data request: Smaller pIC50 value, I vs II ? Select an item and report its label.
Data returned: I
